Property: pIC50; scope: individual compounds
target_system: Human PD-L1/PD-1 (Homo sapiens, UniProt Q9NZQ7)
Construct: made in house; host or cells: HEK293T
Sequence (Q9NZQ7 with tags, fused parts or gaps): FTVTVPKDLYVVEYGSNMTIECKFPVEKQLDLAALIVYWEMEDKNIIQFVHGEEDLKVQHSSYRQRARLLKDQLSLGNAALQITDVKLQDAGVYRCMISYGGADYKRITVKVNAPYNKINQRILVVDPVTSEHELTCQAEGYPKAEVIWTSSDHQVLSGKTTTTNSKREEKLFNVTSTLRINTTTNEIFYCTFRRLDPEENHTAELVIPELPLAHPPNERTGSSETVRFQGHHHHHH
method_summary: HTRF PD-1-Ig/PD-L1-His binding assay (human PD-L1)
reported_conditions: cluster symbol; read-out: HTRF IC50 cluster
pIC50: −log10 of the molar value. Positions of bridges follow the written chain, without caps; N, C: chain ends. Non-standard residues stand in square brackets, D forms with d. Residues, ends and D or L forms follow the SMILES beside them. Hyp = O=C(O)[C@@H]1C[C@@H](O)CN1; NMeNle = CCCC[C@H](NC)C(=O)O; NMeA = CN[C@@H](C)C(=O)O; Orn = NCCC[C@H](N)C(=O)O

{"compound": "CCCC[C@H]1C(=O)N(C)[C@@H](CCCC)C(=O)N[C@@H](C)C(=O)N[C@H](C(=O)NCC(N)=O)CSCC(=O)N[C@@H](Cc2ccc(O)cc2)C(=O)N(C)[C@@H](C)C(=O)N[C@@H](CCCN)C(=O)N2CCC[C@H]2C(=O)N[C@@H](Cc2cnc[nH]2)C(=O)N[C@@H](CCC(=O)O)C(=O)N2C[C@H](O)C[C@H]2C(=O)N[C@@H](Cc2c[nH]c3ccccc23)C(=O)N[C@@H](CO)C(=O)N[C@@H](Cc2c[nH]c3ccccc23)C(=O)N1C [Example 1179] ({CH2CO}-Y[NMeA][Orn]PHE[Hyp]WSW[NMeNle][NMeNle]ACG-NH2; thioether N-14)", "pIC50": "8.17 to 9.41"}

Could you now consider this next compound?
# get_value(readout='pIC50', item= CCCC[C@H]1C(=O)N(C)[C@@H](COCC)C(=O)N[C@@H](CCCNC(=N)N)C(=O)NC(C(=O)NCC(N)=O)CSCC(=O)N[C@@H](Cc2ccc(O)cc2)C(=O)N(C)[C@@H](C)C(=O)N[C@@H](CC(N)=O)C(=O)N2CCC[C@H]2C(=O)N[C@@H](Cc2cnc[nH]2)C(=O)N[C@@H](CC(C)C)C(=O)N2C[C@H](O)C[C@H]2C(=O)N[C@@H](Cc2c[nH]c3ccccc23)C(=O)N[C@@H](CO)C(=O)N[C@@H](Cc2c[nH]c3ccccc23)C(=O)N1C (some centres unmarked) )
8.17 to 9.41

====

target_system: LK35.2-hPD-L1 cells / PE-labeled PD-1-Ig (Homo sapiens)
Construct: expressed in transfected cells; host or cells: LK35.2 mouse B cell line
Sequence (Q9NZQ7 19-290): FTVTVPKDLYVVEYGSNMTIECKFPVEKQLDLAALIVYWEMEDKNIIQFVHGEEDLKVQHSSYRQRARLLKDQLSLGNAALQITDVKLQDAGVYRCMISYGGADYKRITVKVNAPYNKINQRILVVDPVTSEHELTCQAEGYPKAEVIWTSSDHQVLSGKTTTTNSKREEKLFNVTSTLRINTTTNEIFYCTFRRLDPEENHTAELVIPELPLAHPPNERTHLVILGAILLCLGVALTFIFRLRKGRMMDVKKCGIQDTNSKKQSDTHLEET
method_summary: LK35.2-hPD-L1 cell binding high-content screening assay
Type: cell-based
reported_conditions: cell binding assay, cell line not given; cluster symbol; read-out: CBA IC50 cluster
pIC50: −log10 of the molar value. Positions of bridges follow the written chain, without caps; N, C: chain ends. Non-standard residues stand in square brackets, D forms with d. Residues, ends and D or L forms follow the SMILES beside them. ξ: configuration not given here. Phe(4-CH2NH2) = NCc1ccc(C[C@H](N)C(=O)O)cc1; Bta = N[C@@H](Cc1csc2ccccc12)C(=O)O; Hyp = O=C(O)[C@@H]1C[C@@H](O)CN1; NMeF = CN[C@@H](Cc1ccccc1)C(=O)O; NMeNle = CCCC[C@H](NC)C(=O)O; NMeM = CN[C@@H](CCSC)C(=O)O; NMeA = CN[C@@H](C)C(=O)O; ξC = NC(CS)C(=O)O; Sar = CNCC(=O)O
measure: pIC50

{"compound": "CCCC[C@H]1C(=O)N(C)[C@@H](CCCC)C(=O)N[C@@H](CO)C(=O)N[C@H](C(=O)NCC(N)=O)CSCC(=O)N[C@@H](Cc2ccccc2)C(=O)N(C)[C@@H](C)C(=O)N[C@@H](CC(N)=O)C(=O)N2CCC[C@H]2C(=O)N[C@@H](Cc2cnc[nH]2)C(=O)N[C@@H](CC(C)C)C(=O)N(C)CC(=O)N[C@@H](Cc2c[nH]c3ccccc23)C(=O)N[C@@H](CO)C(=O)N[C@@H](Cc2c[nH]c3ccccc23)C(=O)N1C [Example 10001] ({CH2CO}-F[NMeA]NPHL[Sar]WSW[NMeNle][NMeNle]SCG-NH2; thioether N-14)", "target_system": "LK35.2-hPD-L1 cells / PE-labeled PD-1-Ig (Homo sapiens)", "pIC50": "< 7.13"}

# get_value(readout='pIC50', item= CCCC[C@H]1C(=O)N(C)[C@@H](C)C(=O)N[C@@H](CCCNC(=N)N)C(=O)NC(C(=O)NCC(N)=O)CSCC(=O)N[C@@H](Cc2ccc(O)cc2)C(=O)N(C)[C@@H](C)C(=O)N[C@@H](CC(N)=O)C(=O)N2CCC[C@H]2C(=O)N[C@@H](Cc2cnc[nH]2)C(=O)N[C@@H](CC(C)C)C(=O)N2C[C@H](O)C[C@H]2C(=O)N[C@@H](Cc2c[nH]c3ccccc23)C(=O)N[C@@H](CO)C(=O)N[C@@H](Cc2csc3ccccc23)C(=O)N1C (some centres unmarked) [Example 9058] ({CH2CO}-Y[NMeA]NPHL[Hyp]WS[Bta][NMeNle][NMeA]R[ξC]G-NH2; thioether N-14) )
8.33 to 9.80

Entry to check: CCCC[C@H]1C(=O)N(C)[C@@H](CCCC)C(=O)N[C@@H]([C@@H](C)O)C(=O)N[C@H](C(=O)NCC(N)=O)CSCC(=O)N[C@@H](Cc2ccccc2)C(=O)N(C)[C@@H](C)C(=O)N[C@@H](CC(N)=O)C(=O)N2CCC[C@H]2C(=O)N[C@@H](Cc2cnc[nH]2)C(=O)N[C@@H](CC(C)C)C(=O)N(C)CC(=O)N[C@@H](Cc2c[nH]c3ccccc23)C(=O)N[C@@H](CO)C(=O)N[C@@H](Cc2c[nH]c3ccccc23)C(=O)N1C [Example 5021] ({CH2CO}-F[NMeA]NPHL[Sar]WSW[NMeNle][NMeNle]TCG-NH2; thioether N-14)
< 7.13

Entry to check: CCCC[C@H]1C(=O)N(C)CC(=O)N[C@@H](CC(=O)O)C(=O)N[C@@H](C(C)C)C(=O)N(C)[C@@H](Cc2ccccc2)C(=O)N[C@@H](Cc2ccc(O)cc2)C(=O)N(C)CC(=O)N[C@@H](Cc2ccc(CN)cc2)C(=O)N[C@@H](Cc2ccc(O)cc2)C(=O)N[C@@H](CC(C)C)C(=O)N[C@H](C(=O)NCC(N)=O)CSCC(=O)N[C@@H](Cc2ccccc2)C(=O)N(C)[C@@H](Cc2ccccc2)C(=O)N1C [Example 3513] ({CH2CO}-F[NMeF][NMeNle][Sar]DV[NMeF]Y[Sar][Phe(4-CH2NH2)]YLCG-NH2; thioether N-13)
< 7.13

Entry to check: CCCC[C@H]1C(=O)N(C)[C@@H](CCCC)C(=O)N[C@@H](CCC(=O)O)C(=O)N[C@H](C(=O)NCC(N)=O)CSCC(=O)N[C@@H](Cc2ccc(O)cc2)C(=O)N(C)[C@@H](C)C(=O)N[C@@H](CC(=O)O)C(=O)N2CCC[C@H]2C(=O)N[C@@H](Cc2c[nH]cn2)C(=O)N[C@@H](CCCCN)C(=O)N2C[C@H](O)C[C@H]2C(=O)N[C@@H](Cc2c[nH]c3ccccc23)C(=O)N[C@@H](CO)C(=O)N[C@@H](Cc2c[nH]c3ccccc23)C(=O)N1C [Example 5098] ({CH2CO}-Y[NMeA]DPHK[Hyp]WSW[NMeNle][NMeNle]ECG-NH2; thioether N-14)
7.14 to 8.32

Entry to check: CCCC[C@H]1C(=O)N(C)[C@@H](C)C(=O)N[C@@H](CCCNC(=N)N)C(=O)NC(C(=O)NCC(N)=O)CSCC(=O)N[C@@H](Cc2ccc(O)cc2)C(=O)N(C)[C@@H](C)C(=O)N[C@@H](CC(N)=O)C(=O)N2CCC[C@H]2C(=O)N[C@@H](Cc2cnc[nH]2)C(=O)N[C@@H](CC(C)C)C(=O)N2CCC[C@H]2C(=O)N[C@@H](Cc2c[nH]c3ccccc23)C(=O)N[C@@H](CO)C(=O)N[C@@H](Cc2csc3ccccc23)C(=O)N1C (some centres unmarked) [Example 9053] ({CH2CO}-Y[NMeA]NPHLPWS[Bta][NMeNle][NMeA]R[ξC]G-NH2; thioether N-14)
7.14 to 8.32

Entry to check: CCCC[C@H]1C(=O)N[C@@H](CCCNC(=N)N)C(=O)NC(C(=O)NCC(N)=O)CSCC(=O)N[C@@H](Cc2ccc(O)cc2)C(=O)N(C)[C@@H](C)C(=O)N[C@@H](CC(N)=O)C(=O)N2CCC[C@H]2C(=O)N[C@@H](Cc2cnc[nH]2)C(=O)N[C@@H](CO)C(=O)N2C[C@H](O)C[C@H]2C(=O)N[C@@H](Cc2c[nH]c3ccccc23)C(=O)N[C@@H](CO)C(=O)N[C@@H](Cc2c[nH]c3ccccc23)C(=O)N(C)[C@@H](CCSC)C(=O)N1C (some centres unmarked) [Example 9113] ({CH2CO}-Y[NMeA]NPHS[Hyp]WSW[NMeM][NMeNle]R[ξC]G-NH2; thioether N-14)
7.14 to 8.32

Entry to check: CCCC[C@H]1C(=O)N(C)[C@@H](CCCC)C(=O)N[C@@H](CO)C(=O)NC(C(=O)NCC(N)=O)CSCC(=O)N[C@@H](Cc2ccc(O)cc2)C(=O)N(C)[C@@H](C)C(=O)N[C@@H](CC(N)=O)C(=O)N2CCC[C@H]2C(=O)N[C@@H](Cc2cnc[nH]2)C(=O)N[C@@H](CC(C)C)C(=O)N2C[C@H](O)C[C@H]2C(=O)N[C@@H](Cc2c[nH]c3ccccc23)C(=O)N[C@@H](CO)C(=O)N[C@@H](Cc2csc3ccccc23)C(=O)N1C (some centres unmarked) [Example 9028] ({CH2CO}-Y[NMeA]NPHL[Hyp]WS[Bta][NMeNle][NMeNle]S[ξC]G-NH2; thioether N-14)
8.33 to 9.80

Source of measurements: patent US9850283B2
